src = paper PMC3000800

As an illustration, consider measured IC50 for compounds on human α7 nAChR (Homo sapiens, UniProt P36544).
Sequence (P36544 23-502): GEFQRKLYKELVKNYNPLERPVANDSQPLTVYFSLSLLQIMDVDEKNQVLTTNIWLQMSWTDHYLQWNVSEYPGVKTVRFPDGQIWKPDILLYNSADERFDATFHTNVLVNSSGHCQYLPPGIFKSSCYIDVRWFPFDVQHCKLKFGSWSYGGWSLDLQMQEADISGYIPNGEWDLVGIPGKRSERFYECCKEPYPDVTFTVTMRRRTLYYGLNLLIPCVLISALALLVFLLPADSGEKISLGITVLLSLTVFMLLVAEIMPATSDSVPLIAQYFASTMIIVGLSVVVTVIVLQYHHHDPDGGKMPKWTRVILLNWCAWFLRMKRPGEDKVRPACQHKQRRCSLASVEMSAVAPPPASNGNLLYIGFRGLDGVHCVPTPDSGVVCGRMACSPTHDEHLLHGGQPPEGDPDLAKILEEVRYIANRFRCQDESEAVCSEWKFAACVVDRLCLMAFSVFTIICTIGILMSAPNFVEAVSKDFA
Express it in µM; write the number only.

1. CN(CC1CCN(Cc2ccccc2)CC1)C(=O)c1cn(Cc2ccccc2Cl)nn1 [compound 7i]    3.8

Now examine the next entry.
Can you share its IC50? I mean this compound: CCCc1c(C(=O)NC2CCN(Cc3ccccc3)CC2)cnn1-c1ccccc1 [compound 8]
18.9
